# target or test system: Atypical chemokine receptor 3 (Homo sapiens, UniProt P25106, S198R)
# Sequence (P25106 whole entry S198R): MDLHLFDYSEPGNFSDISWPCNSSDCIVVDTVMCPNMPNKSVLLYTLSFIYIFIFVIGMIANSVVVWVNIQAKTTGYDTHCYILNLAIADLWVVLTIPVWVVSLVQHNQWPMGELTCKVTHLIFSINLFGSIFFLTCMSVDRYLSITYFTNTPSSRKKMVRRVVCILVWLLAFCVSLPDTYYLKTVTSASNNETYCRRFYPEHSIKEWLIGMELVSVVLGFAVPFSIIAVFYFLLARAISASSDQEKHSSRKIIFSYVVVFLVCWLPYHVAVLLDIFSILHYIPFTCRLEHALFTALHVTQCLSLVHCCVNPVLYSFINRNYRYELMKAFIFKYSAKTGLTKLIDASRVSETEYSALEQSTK
# assay name: Agonist activity at CXCR7 S198R mutant (unknown origin) expressed in HEK293E cells co-transfected with receptor-eYFP construct and beta-arrestin2-Rluc assessed as induction of receptor-mediated beta-arrestin recruitment by BRET assay
readout: EC50
Could you write the number and then its unit?

mol=N=C(N)NCCC[C@@H]1NC(=O)[C@H](CCCNC(=N)N)NC(=O)[C@@H](Cc2ccc(O)cc2)NC(=O)[C@@H]2CCCN2C(=O)[C@H](Cc2ccc3ccccc3c2)NC1=O target_or_test_system="Atypical chemokine receptor 3 (Homo sapiens, UniProt P25106, S198R)" recorded_value="360 nM"

Suppose we examine the compound CN1C(=O)[C@H](CCCNC(=N)N)NC(=O)[C@@H](Cc2ccc(O)cc2)NC(=O)[C@@H]2CCCN2C(=O)[C@H](Cc2ccc3ccccc3c2)NC(=O)[C@@H]1CCCNC(=N)N ; what EC50 value has been reported? 360 nM
